Target: Prp8 intein (Cryptococcus gattii)
Sequence (E6R027 entry or part of it): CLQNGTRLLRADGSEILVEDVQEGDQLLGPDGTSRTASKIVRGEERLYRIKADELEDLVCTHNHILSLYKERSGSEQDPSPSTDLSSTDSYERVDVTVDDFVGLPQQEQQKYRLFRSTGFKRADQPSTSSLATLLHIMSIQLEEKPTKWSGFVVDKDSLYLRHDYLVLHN
Test: Split Renilla luciferase RLuc-Prp8 intein splicing assay
Format: biochemical
Conditions: split Renilla luciferase RLuc-Prp8 intein splicing
Observable: IC50 (µM)
Give just the numeric value; µM need not be written.

Consider the worked cases shown below.
1) O=C(NCc1ccc(F)cc1)c1nnsc1S(=O)(=O)c1ccc(Cl)cc1 [JMX0574]: 59.1
2) O=C(Nc1ccc(F)cc1)c1nnc(S(=O)(=O)c2ccc(Cl)cc2)s1 [JMX0585-1]: 19.4
3) O=C(Nc1ccc(Cl)cc1)c1ncsc1S(=O)(=O)c1ccc(Cl)cc1 [JMX0518]: 6.5
4) O=C(Nc1cccc(F)c1)c1ncsc1S(=O)(=O)c1ccc(Cl)cc1 [JMX0517]: 28.4
5) O=C(Nc1ccc(F)cc1)c1nnsc1Sc1ccc(Cl)cc1 [JMX0564]: 15.8
6) O=C(Nc1ccc(F)cc1)c1ncsc1S(=O)(=O)c1ccc(Cl)cc1 [JMX0525]: 6.4
7) O=C(Nc1ccc(C(F)(F)F)cc1)c1ncsc1S(=O)(=O)c1ccc(Cl)cc1 [JMX0521]: 29.3
8) O=C(Nc1ccccc1F)c1ncsc1S(=O)(=O)c1ccc(Cl)cc1 [JMX0516]: 13.3

# input Bench note: what IC50 did O=C(NCc1ccc(F)cc1)c1ncsc1S(=O)(=O)c1ccc(Cl)cc1 [JMX0541] show?
# output 10.6

# input Would you mind telling me what IC50 value was observed for O=C(Nc1ccc(F)cc1F)c1nnsc1Sc1ccc(Cl)cc1 [JMX0569] ?
# output 36.2

# input molecule: O=C(Nc1ccc(Cl)cc1)c1nnsc1Sc1ccc(Cl)cc1 [JMX0570] ; wanted: its IC50
# output 21.6
